Molecular target: Recombinant Human ENPP-1 Protein (Homo sapiens (Human), UniProt P22413)
Sequence (P22413 99-925): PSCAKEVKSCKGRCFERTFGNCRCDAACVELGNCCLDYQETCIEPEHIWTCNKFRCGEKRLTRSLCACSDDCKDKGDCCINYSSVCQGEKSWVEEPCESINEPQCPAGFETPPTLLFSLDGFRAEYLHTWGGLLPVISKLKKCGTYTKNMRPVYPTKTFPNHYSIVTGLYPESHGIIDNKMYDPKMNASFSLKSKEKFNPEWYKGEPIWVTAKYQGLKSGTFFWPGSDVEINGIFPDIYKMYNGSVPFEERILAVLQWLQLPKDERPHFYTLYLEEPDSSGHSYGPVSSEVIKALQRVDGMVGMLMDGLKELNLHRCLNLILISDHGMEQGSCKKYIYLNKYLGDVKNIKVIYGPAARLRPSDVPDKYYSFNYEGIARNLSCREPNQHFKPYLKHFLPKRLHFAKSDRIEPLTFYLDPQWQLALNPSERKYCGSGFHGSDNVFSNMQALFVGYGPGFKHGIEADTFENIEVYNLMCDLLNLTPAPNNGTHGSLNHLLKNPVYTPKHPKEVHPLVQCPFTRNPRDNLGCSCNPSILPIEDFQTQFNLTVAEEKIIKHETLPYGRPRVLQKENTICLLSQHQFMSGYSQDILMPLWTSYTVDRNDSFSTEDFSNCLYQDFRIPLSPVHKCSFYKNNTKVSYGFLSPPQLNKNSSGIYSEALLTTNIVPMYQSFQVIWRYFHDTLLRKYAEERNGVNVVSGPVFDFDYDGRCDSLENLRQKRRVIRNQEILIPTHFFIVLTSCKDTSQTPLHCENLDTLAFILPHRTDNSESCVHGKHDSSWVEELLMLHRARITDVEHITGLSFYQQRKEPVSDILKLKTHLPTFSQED
Assay: ENPP1 Inhibition Assay
Format: biochemical
Conditions: substrate thymidine 5′-monophosphate p-nitrophenol ester, pH 9.0, 37° C. 45 minutes; read-out: Inhibition of ENPP1 IC50
pIC50: −log10 of the molar value.
Task for the reader: assign each of the following compounds its reported pIC50.

Q. Please tell me: pIC50 of COc1cc2ncnc(N3CCCN(CP(=O)(O)O)CC3)c2cc1OC [Compound I-6] , system Recombinant Human ENPP-1 Protein (Homo sapiens (Human), UniProt P22413)?
A. < 7.00

Q. Please tell me: pIC50 of COc1cc2ncnc(N3CCCC(CCP(=O)(O)O)CC3)c2cc1OC (stereo not shown) [Compound I-4] , system Recombinant Human ENPP-1 Protein (Homo sapiens (Human), UniProt P22413)?
A. > 8.00

Q. Please tell me: pIC50 of COc1cc2ncnc(N3CCCC(CP(=O)(OCOC(=O)C(C)C)OCOC(=O)C(C)C)CC3)c2cc1OC (stereo not shown) [Compound I-10] , system Recombinant Human ENPP-1 Protein (Homo sapiens (Human), UniProt P22413)?
A. < 7.00

Q. Please tell me: pIC50 of COc1cccc2c(N3CCCC(CP(=O)(O)O)CC3)ccnc12 (stereo not shown) [Compound I-8] , system Recombinant Human ENPP-1 Protein (Homo sapiens (Human), UniProt P22413)?
A. < 7.00

Q. Please tell me: pIC50 of COc1cc2ncnc(N3CCC[C@H](CP(=O)(O)O)CC3)c2cc1OC [Compound I-2] , system Recombinant Human ENPP-1 Protein (Homo sapiens (Human), UniProt P22413)?
A. < 7.00

Q. Please tell me: pIC50 of COc1cccc2c(N3CCCC(CP(=O)(O)O)CC3)ncnc12 (stereo not shown) [Compound I-9] , system Recombinant Human ENPP-1 Protein (Homo sapiens (Human), UniProt P22413)?
A. > 8.00

Q. Please tell me: pIC50 of COc1cc2ncc(C#N)c(N3CCCC(CP(=O)(O)O)CC3)c2cc1OC (stereo not shown) [Compound I-7] , system Recombinant Human ENPP-1 Protein (Homo sapiens (Human), UniProt P22413)?
A. > 8.00

---

Task for the reader: assign each of the following molecules its reported IC50.
Target: Recombinant CndP (CdnP) (Mycobacterium tuberculosis (strain ATCC 25618 / H37Rv))
Sequence (P71615 whole entry, looked up): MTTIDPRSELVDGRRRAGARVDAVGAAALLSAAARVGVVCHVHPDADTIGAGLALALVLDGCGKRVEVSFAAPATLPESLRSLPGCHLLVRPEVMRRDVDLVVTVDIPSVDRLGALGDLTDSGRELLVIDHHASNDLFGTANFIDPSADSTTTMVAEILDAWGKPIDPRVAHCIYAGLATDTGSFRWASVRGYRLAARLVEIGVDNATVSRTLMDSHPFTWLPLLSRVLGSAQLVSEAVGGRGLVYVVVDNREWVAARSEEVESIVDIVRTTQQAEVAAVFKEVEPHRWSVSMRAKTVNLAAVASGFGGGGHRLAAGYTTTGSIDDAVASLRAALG
Assay: CndP Assay with BPNPP substrate
Conditions: pH 8.0, 37° C. 45 minutes, read-out: Inhibition of CdnP IC50

Q. Please tell me: IC50 of COc1cccc2c(N3CCCC(CP(=O)(O)O)CC3)ncnc12 (stereo not shown) , system Recombinant CndP (CdnP) (Mycobacterium tuberculosis (strain ATCC 25618 / H37Rv))?
A. 100 to 1000 nM

Q. Please tell me: IC50 of COc1cc2ncnc(N3CCCC(CCP(=O)(O)O)CC3)c2cc1OC (stereo not shown) , system Recombinant CndP (CdnP) (Mycobacterium tuberculosis (strain ATCC 25618 / H37Rv))?
A. < 100 nM

Q. Please tell me: IC50 of COc1cc2ncnc(N3CCCC(CP(=O)(OCOC(=O)C(C)C)OCOC(=O)C(C)C)CC3)c2cc1OC (stereo not shown) , system Recombinant CndP (CdnP) (Mycobacterium tuberculosis (strain ATCC 25618 / H37Rv))?
A. > 1000 nM

Q. Please tell me: IC50 of COc1cc2ncnc(N3CCCN(CP(=O)(O)O)CC3)c2cc1OC , system Recombinant CndP (CdnP) (Mycobacterium tuberculosis (strain ATCC 25618 / H37Rv))?
A. > 1000 nM

Q. Please tell me: IC50 of COc1cc2ncnc(N3CCCC(CCCP(=O)(O)O)CC3)c2cc1OC (stereo not shown) , system Recombinant CndP (CdnP) (Mycobacterium tuberculosis (strain ATCC 25618 / H37Rv))?
A. 100 to 1000 nM

Q. Please tell me: IC50 of COc1cc2ncc(C#N)c(N3CCCC(CP(=O)(O)O)CC3)c2cc1OC (stereo not shown) , system Recombinant CndP (CdnP) (Mycobacterium tuberculosis (strain ATCC 25618 / H37Rv))?
A. < 100 nM

Q. Please tell me: IC50 of COc1cccc2c(N3CCCC(CP(=O)(O)O)CC3)ccnc12 (stereo not shown) , system Recombinant CndP (CdnP) (Mycobacterium tuberculosis (strain ATCC 25618 / H37Rv))?
A. 100 to 1000 nM

Q. Please tell me: IC50 of COc1cc2ncnc(N3CCC[C@@H](CP(=O)(O)O)CC3)c2cc1OC , system Recombinant CndP (CdnP) (Mycobacterium tuberculosis (strain ATCC 25618 / H37Rv))?
A. 100 to 1000 nM

Q. Please tell me: IC50 of COc1cc2ncnc(N3CCC[C@H](CP(=O)(O)O)CC3)c2cc1OC , system Recombinant CndP (CdnP) (Mycobacterium tuberculosis (strain ATCC 25618 / H37Rv))?
A. 100 to 1000 nM

Q. Please tell me: IC50 of COc1cc2ncnc(N3CCCC(CP(=O)(O)O)CC3)c2cc1OC (stereo not shown) , system Recombinant CndP (CdnP) (Mycobacterium tuberculosis (strain ATCC 25618 / H37Rv))?
A. 100 to 1000 nM
